target_system: Serine/threonine-protein kinase PAK 4 (Homo sapiens)
experiment: Inhibition of myc-tagged PAK4 (unknown origin) using histone H3 as substrate preincubated for 30 mins followed by substrate addition measured for 30 mins in presence of [gamma-32P]ATP by autoradiographic method
endpoint: pIC50
When answering, recall that pIC50 equals minus log10 of the concentration in mol/L, and write that number alone.

Asked: GET /values?readout=pIC50&item= COc1cccc(Nc2nc(NCC3CCCO3)c3ccccc3n2)c1 (stereo unspecified)
Given back: 4.84

* * *

target_system: Serine/threonine-protein kinase PAK 4 (Homo sapiens, UniProt O96013)
Sequence (O96013 whole entry, the tested form may be a part): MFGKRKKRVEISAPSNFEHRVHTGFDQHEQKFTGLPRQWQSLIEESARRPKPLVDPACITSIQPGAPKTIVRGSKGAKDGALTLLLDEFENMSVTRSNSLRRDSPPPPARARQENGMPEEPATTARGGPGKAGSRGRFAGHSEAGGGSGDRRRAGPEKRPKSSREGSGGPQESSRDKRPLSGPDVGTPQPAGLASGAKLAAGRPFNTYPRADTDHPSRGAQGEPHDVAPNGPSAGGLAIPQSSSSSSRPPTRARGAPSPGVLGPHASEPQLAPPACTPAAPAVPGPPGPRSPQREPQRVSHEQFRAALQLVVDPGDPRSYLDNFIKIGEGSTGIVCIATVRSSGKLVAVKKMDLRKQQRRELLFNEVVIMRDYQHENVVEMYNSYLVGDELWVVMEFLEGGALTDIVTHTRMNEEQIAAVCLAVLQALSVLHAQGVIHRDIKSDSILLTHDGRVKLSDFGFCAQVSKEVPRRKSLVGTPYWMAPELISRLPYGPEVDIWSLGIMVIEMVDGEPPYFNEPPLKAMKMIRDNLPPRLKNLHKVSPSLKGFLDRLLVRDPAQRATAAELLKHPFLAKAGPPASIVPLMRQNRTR
experiment: Inhibition of recombinant human N-terminal GST-fused PAK4 (1 to 591 residues) expressed in baculovirus expression system using S2 as substrate measured after 40 mins by HTRF assay
endpoint: pIC50
Kindly note that pIC50 refers to -log10 of the concentration in mol/L and answer with the value alone.

[[record]]
compound_structure = "Cc1cc(Nc2nc(NCCc3c[nH]c4ccccc34)c3cc(Cl)ccc3n2)cc2cn[nH]c12"
endpoint = "pIC50"
meas_value = 5.63

[[record]]
compound_structure = "Clc1ccc2nc(Nc3ccc4[nH]cnc4c3)nc(NCCc3c[nH]c4ccccc34)c2c1"
endpoint = "pIC50"
meas_value = 5.51

[[record]]
compound_structure = "Clc1ccc2nc(Nc3ccc4cn[nH]c4c3)nc(NCCc3c[nH]c4ccccc34)c2c1"
endpoint = "pIC50"
meas_value = 5.69

[[record]]
compound_structure = "COc1ccc2c(Nc3ccc4[nH]ncc4c3)nc(NCCc3c[nH]c4ccccc34)nc2c1"
endpoint = "pIC50"
meas_value = 6.32

[[record]]
compound_structure = "COc1ccc2nc(NCCc3c[nH]c4ccccc34)nc(Nc3ccc4[nH]ncc4c3)c2c1"
endpoint = "pIC50"
meas_value = 5.82


Asked: Field request: pIC50 | item: Clc1ccc2nc(Nc3ccc4[nH]nnc4c3)nc(NCCc3c[nH]c4ccccc34)c2c1
Given back: 5.93

Asked: Query (compound): Clc1ccc2nc(Nc3cc(Cl)c4[nH]ncc4c3)nc(NCCc3c[nH]c4ccccc34)c2c1 ; field requested: pIC50
Given back: 6.03

Asked: Item under review: Clc1ccc2nc(Nc3cc(Br)c4[nH]ncc4c3)nc(NCCc3c[nH]c4ccccc34)c2c1 . Reported pIC50?
Given back: 5.98

Asked: Dear colleague, I am looking for the recorded pIC50 of the following compound: Clc1ccc2nc(Nc3cnc4[nH]ncc4c3)nc(NCCc3c[nH]c4ccccc34)c2c1
Given back: 6.20

Asked: Reported pIC50 for O=C1Cc2cc(Nc3nc(NCCc4c[nH]c5ccccc45)c4cc(Cl)ccc4n3)ccc2N1 : what is it?
Given back: 5.76

* * *

experiment: Oral bioavailability in metastatic solid tumor patient
Assay type: ADME, organism-based
conditions: human, in vivo
endpoint: bioavailability (%)
API: value field is a number in %; no unit string.

Asked: Would you kindly share the measured bioavailability for Cc1nc(Nc2n[nH]c3c2CN(C(=O)N[C@H](CN(C)C)c2ccccc2)C3(C)C)c2sccc2n1 ?
Given back: 1
